Sourced from ChEMBL document CHEMBL4613214

Record form. Attribute: fold change (FC). Fill in for each entry.
System: Cholesterol 24-hydroxylase (Homo sapiens), Q9Y6A2 [UNDEFINED MUTATION]
Sequence (Q9Y6A2 whole entry, looked up, stated change not applied): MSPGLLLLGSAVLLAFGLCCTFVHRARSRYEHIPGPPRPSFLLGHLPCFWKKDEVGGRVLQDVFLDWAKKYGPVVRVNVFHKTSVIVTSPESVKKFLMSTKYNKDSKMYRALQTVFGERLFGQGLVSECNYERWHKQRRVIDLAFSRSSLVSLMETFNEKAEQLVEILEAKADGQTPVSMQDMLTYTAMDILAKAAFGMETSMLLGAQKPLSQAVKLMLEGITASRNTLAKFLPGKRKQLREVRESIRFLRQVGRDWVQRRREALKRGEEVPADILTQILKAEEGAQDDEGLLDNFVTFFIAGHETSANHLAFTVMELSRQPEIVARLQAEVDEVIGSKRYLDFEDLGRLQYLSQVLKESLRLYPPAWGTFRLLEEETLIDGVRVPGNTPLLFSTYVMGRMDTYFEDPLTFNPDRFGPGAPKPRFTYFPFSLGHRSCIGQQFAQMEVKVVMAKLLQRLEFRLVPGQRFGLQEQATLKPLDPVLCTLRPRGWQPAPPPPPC
PROTOCOL: Activation of recombinant human C-terminal 4His-tagged CYP46A1 delta(2 to 50) mutant expressed in Escherichia coli at 20 uM using cholesterol as substrate measured after 30 mins in presence of cytochrome P450 oxidoreductase and L-Glu by gas chromatography-mass spectrometry relative to control
One number for each entry.

Answered examples (3):
[
  {
    "MOLECULE": "CCCC#CC1(C(F)(F)F)OC(=O)Nc2ccc(Cl)cc21 (racemic)",
    "TESTED TARGET": "Cholesterol 24-hydroxylase (Homo sapiens), Q9Y6A2 [UNDEFINED MUTATION]",
    "VALUE REPORTED": 3.7
  },
  {
    "MOLECULE": "O=C1Nc2c(O)cc(Cl)cc2C(C#CC2(O)CC2)(C(F)(F)F)O1 (racemic)",
    "TESTED TARGET": "Cholesterol 24-hydroxylase (Homo sapiens), Q9Y6A2 [UNDEFINED MUTATION]",
    "VALUE REPORTED": 4.8
  },
  {
    "MOLECULE": "O=C1CC(C#CC2CC2)(C(F)(F)F)c2cc(Cl)ccc2N1 (racemic)",
    "TESTED TARGET": "Cholesterol 24-hydroxylase (Homo sapiens), Q9Y6A2 [UNDEFINED MUTATION]",
    "VALUE REPORTED": 4.6
  }
]

# per-item lookup of fold change (FC); items listed below
1. O=C1Cc2ccc(Cl)cc2C(C#CC2CC2)(C(F)(F)F)O1 (racemic)
2. O=C1Nc2c(O)cc(Cl)cc2[C@@](C#CC2CC2)(C(F)(F)F)O1
3. O=C1Nc2cc(O)c(Cl)cc2C(C#CC2CC2)(C(F)(F)F)O1 (racemic)

-- reply
1. 2.8
2. 7.4
3. 6.8

###

Species: Homo sapiens
PROTOCOL: Activation of recombinant human C-terminal 4His-tagged CYP46A1 delta(2 to 50) K358A mutant expressed in Escherichia coli at 20 uM using cholesterol as substrate measured after 30 mins in presence of cytochrome P450 oxidoreductase by gas chromatography-mass spectrometry
The source made the active and inactive calls. The rule behind the calls is not given here.
Your reply should match one of these outcome classes. active, inactive

[
  {
    "COMPOUND": "O=C1Cc2ccc(Cl)cc2C(C#CC2CC2)(C(F)(F)F)O1 (racemic)",
    "LABEL CLASS": "active"
  }
]

-- ask Per the assay record, what outcome was assigned to "FC(F)(F)[C@@]1(C#CC2CC2)OCNc2ccc(Cl)cc21" ?
-- reply active

-- ask Per the assay record, what outcome was assigned to O=C1CC(C#CC2CC2)(C(F)(F)F)c2cc(Cl)ccc2N1 (racemic) ?
-- reply inactive

-- ask Per the assay record, what outcome was assigned to "O=C1Nc2ccc(Cl)cc2[C@@](C#CC2CC2)(C(F)(F)F)O1" ?
-- reply inactive

-- ask Per the assay record, what outcome was assigned to O=C1Nc2c(O)cc(Cl)cc2C(C#CC2(O)CC2)(C(F)(F)F)O1 (racemic) ?
-- reply active

-- ask Per the assay record, what outcome was assigned to "O=C1Nc2c(O)cc(Cl)cc2[C@@](C#CC2CC2)(C(F)(F)F)O1" ?
-- reply active

-- ask Per the assay record, what outcome was assigned to CCCC#CC1(C(F)(F)F)OC(=O)Nc2ccc(Cl)cc21 (racemic) ?
-- reply inactive

-- ask Per the assay record, what outcome was assigned to O=C1Nc2cc(O)c(Cl)cc2C(C#CC2CC2)(C(F)(F)F)O1 (racemic) ?
-- reply active

-- ask Per the assay record, what outcome was assigned to CC1Nc2ccc(Cl)cc2C(C#CC2CC2)(C(F)(F)F)O1 (racemic) ?
-- reply active

###

Organism: Homo sapiens
PROTOCOL: Activation of recombinant human C-terminal 4His-tagged CYP46A1 delta(2 to 50) K358L mutant expressed in Escherichia coli at 20 uM using cholesterol as substrate measured after 30 mins in presence of cytochrome P450 oxidoreductase by gas chromatography-mass spectrometry
Activity calls are given as the source filed them. The rule behind the calls is not given here.
Your reply should match one of these outcome classes. active, inactive

[
  {
    "COMPOUND": "FC(F)(F)[C@@]1(C#CC2CC2)OCNc2ccc(Cl)cc21",
    "LABEL CLASS": "active"
  },
  {
    "COMPOUND": "O=C1Nc2c(O)cc(Cl)cc2[C@@](C#CC2CC2)(C(F)(F)F)O1",
    "LABEL CLASS": "active"
  },
  {
    "COMPOUND": "CC1Nc2ccc(Cl)cc2C(C#CC2CC2)(C(F)(F)F)O1 (racemic)",
    "LABEL CLASS": "active"
  },
  {
    "COMPOUND": "O=C1Nc2cc(O)c(Cl)cc2C(C#CC2CC2)(C(F)(F)F)O1 (racemic)",
    "LABEL CLASS": "active"
  },
  {
    "COMPOUND": "O=C1Cc2ccc(Cl)cc2C(C#CC2CC2)(C(F)(F)F)O1 (racemic)",
    "LABEL CLASS": "active"
  }
]

-- ask Per the assay record, what outcome was assigned to O=C1Nc2c(O)cc(Cl)cc2C(C#CC2(O)CC2)(C(F)(F)F)O1 (racemic) ?
-- reply active

-- ask Per the assay record, what outcome was assigned to CCCC#CC1(C(F)(F)F)OC(=O)Nc2ccc(Cl)cc21 (racemic) ?
-- reply inactive

-- ask Per the assay record, what outcome was assigned to O=C1CC(C#CC2CC2)(C(F)(F)F)c2cc(Cl)ccc2N1 (racemic) ?
-- reply inactive

-- ask Per the assay record, what outcome was assigned to "O=C1Nc2ccc(Cl)cc2[C@@](C#CC2CC2)(C(F)(F)F)O1" ?
-- reply inactive

###

Organism: Homo sapiens
PROTOCOL: Activation of recombinant human C-terminal 4His-tagged CYP46A1 delta(2 to 50) F416A mutant expressed in Escherichia coli at 20 uM using cholesterol as substrate measured after 30 mins in presence of cytochrome P450 oxidoreductase by gas chromatography-mass spectrometry
Activity calls are given as the source filed them. The rule behind the calls is not given here.
Your reply should match one of these outcome classes. active, inactive

// below: answered compounds
[
  {
    "COMPOUND": "O=C1CC(C#CC2CC2)(C(F)(F)F)c2cc(Cl)ccc2N1 (racemic)",
    "LABEL CLASS": "inactive"
  },
  {
    "COMPOUND": "CCCC#CC1(C(F)(F)F)OC(=O)Nc2ccc(Cl)cc21 (racemic)",
    "LABEL CLASS": "inactive"
  },
  {
    "COMPOUND": "CC1Nc2ccc(Cl)cc2C(C#CC2CC2)(C(F)(F)F)O1 (racemic)",
    "LABEL CLASS": "active"
  },
  {
    "COMPOUND": "O=C1Nc2cc(O)c(Cl)cc2C(C#CC2CC2)(C(F)(F)F)O1 (racemic)",
    "LABEL CLASS": "active"
  },
  {
    "COMPOUND": "O=C1Cc2ccc(Cl)cc2C(C#CC2CC2)(C(F)(F)F)O1 (racemic)",
    "LABEL CLASS": "active"
  },
  {
    "COMPOUND": "FC(F)(F)[C@@]1(C#CC2CC2)OCNc2ccc(Cl)cc21",
    "LABEL CLASS": "active"
  },
  {
    "COMPOUND": "O=C1Nc2c(O)cc(Cl)cc2C(C#CC2(O)CC2)(C(F)(F)F)O1 (racemic)",
    "LABEL CLASS": "active"
  },
  {
    "COMPOUND": "O=C1Nc2c(O)cc(Cl)cc2[C@@](C#CC2CC2)(C(F)(F)F)O1",
    "LABEL CLASS": "active"
  }
]

-- ask Per the assay record, what outcome was assigned to O=C1Nc2ccc(Cl)cc2[C@@](C#CC2CC2)(C(F)(F)F)O1 [EFAVIRENZ] ?
-- reply inactive

###

Species: Homo sapiens
PROTOCOL: Activation of recombinant human C-terminal 4His-tagged CYP46A1 delta(2 to 50) K358R mutant expressed in Escherichia coli at 20 uM using cholesterol as substrate measured after 30 mins in presence of cytochrome P450 oxidoreductase by gas chromatography-mass spectrometry
Activity calls are given as the source filed them. The rule behind the calls is not given here.
Your reply should match one of these outcome classes. active, inactive

-- ask Per the assay record, what outcome was assigned to CCCC#CC1(C(F)(F)F)OC(=O)Nc2ccc(Cl)cc21 (racemic) ?
-- reply inactive

-- ask Per the assay record, what outcome was assigned to "O=C1Nc2ccc(Cl)cc2[C@@](C#CC2CC2)(C(F)(F)F)O1" ?
-- reply inactive

###

Species: Homo sapiens
PROTOCOL: Activation of recombinant human C-terminal 4His-tagged CYP46A1 delta(2 to 50) R415A mutant expressed in Escherichia coli at 20 uM using cholesterol as substrate measured after 30 mins in presence of cytochrome P450 oxidoreductase by gas chromatography-mass spectrometry
Activity calls are given as the source filed them. The calls are words filed in the database; no cut-off is given here.
ENDPOINT NAME: Activity

Answered examples (4):
[
  {
    "COMPOUND": "O=C1Nc2c(O)cc(Cl)cc2C(C#CC2(O)CC2)(C(F)(F)F)O1 (racemic)",
    "ENDPOINT NAME": "Activity",
    "VALUE REPORTED": "inactive"
  },
  {
    "COMPOUND": "FC(F)(F)[C@@]1(C#CC2CC2)OCNc2ccc(Cl)cc21",
    "ENDPOINT NAME": "Activity",
    "VALUE REPORTED": "inactive"
  },
  {
    "COMPOUND": "CCCC#CC1(C(F)(F)F)OC(=O)Nc2ccc(Cl)cc21 (racemic)",
    "ENDPOINT NAME": "Activity",
    "VALUE REPORTED": "Active"
  },
  {
    "COMPOUND": "O=C1Nc2ccc(Cl)cc2[C@@](C#CC2CC2)(C(F)(F)F)O1 [EFAVIRENZ]",
    "ENDPOINT NAME": "Activity",
    "VALUE REPORTED": "Active"
  }
]

# per-item lookup of Activity; items listed below
1. CC1Nc2ccc(Cl)cc2C(C#CC2CC2)(C(F)(F)F)O1 (racemic)
2. O=C1Nc2c(O)cc(Cl)cc2[C@@](C#CC2CC2)(C(F)(F)F)O1
3. O=C1CC(C#CC2CC2)(C(F)(F)F)c2cc(Cl)ccc2N1 (racemic)
4. O=C1Nc2cc(O)c(Cl)cc2C(C#CC2CC2)(C(F)(F)F)O1 (racemic)
5. O=C1Cc2ccc(Cl)cc2C(C#CC2CC2)(C(F)(F)F)O1 (racemic)

-- reply
1. inactive
2. Active
3. Active
4. Active
5. Active
